- Tested on: A498 complex spheroid viability
- Method Summary: Anticancer human tumor A498 cell line growth inhibition;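 note: spheroids exposed to agents for seven days before readout; 100% = DMSO vehicle-treated spheroids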
- Reported Conditions: second compound 0.316 µM; first compound 0.316 µM; active compounds read low
Recorded Metric: viability, T/C (%)
# unit: % | format: bare number

Use the examples below as a reference point.
| Compound | viability, T/C (%) |
| --- | --- |
| CC1COCCN1c1cc(C2(S(C)(=N)=O)CC2)nc(-c2ccnc3[nH]ccc23)n1 (stereo not drawn) + NC1CCC(NC2CC2c2ccccc2)CC1 | 82.8 |
| CC1COCCN1c1cc(-c2ccnn2C)c2ccnc(-c3ccn[nH]3)c2n1 (stereo not drawn) + NC1CCC(NC2CC2c2ccccc2)CC1 | 14.3 |
| COc1ccc([C@@H](O)c2cc(-c3ncnc4cc(N5CCOCC5)ccc34)c(F)cc2Cl)nn1 + NC1CC1c1ccc(-c2cccc(O)c2)cc1 | 28.8 |

Field request: viability, T/C | item: COc1cc(Nc2ncc3c(n2)-c2ccc(Cl)cc2C(c2c(F)cccc2OC)=NC3)ccc1C(=O)O + NC1CCC(NC2CC2c2ccccc2)CC1
50.5

Consider the compound shown here: CC1(C)CCC(CN2CCN(c3ccc(C(=O)NS(=O)(=O)c4ccc(NCC5CCOCC5)c([N+](=O)[O-])c4)c(Oc4cnc5[nH]ccc5c4)c3)CC2)=C(c2ccc(Cl)cc2)C1 + NC1CC1c1ccc(-c2cccc(O)c2)cc1 What is its recorded viability, T/C?
96.6

Quick one: viability, T/C of CC(C)c1c(-c2ccccc2)nc2c(C#N)c[nH]n2c1=O + NC1CC1c1ccc(-c2cccc(O)c2)cc1 ?
101

Value lookup for viability, T/C; key = O=C(c1cc(Cc2n[nH]c(=O)c3ccccc23)ccc1F)N1CCN(C(=O)C2CC2)CC1 + NC1CCC(NC2CC2c2ccccc2)CC1
94.4

What value of measured viability, T/C is listed for O=C(c1cc(Cc2n[nH]c(=O)c3ccccc23)ccc1F)N1CCN(C(=O)C2CC2)CC1 + NC1CC1c1ccc(-c2cccc(O)c2)cc1 ?
111

I'd like to know its viability, T/C. The compound in question is Nc1ncn(C2CC(O)C(CO)O2)c(=O)n1 (stereo not drawn) + NC1CC1c1ccc(-c2cccc(O)c2)cc1
93.1

Bench note: what viability, T/C did CC1(C)CCC(CN2CCN(c3ccc(C(=O)NS(=O)(=O)c4ccc(NCC5CCOCC5)c([N+](=O)[O-])c4)c(Oc4cnc5[nH]ccc5c4)c3)CC2)=C(c2ccc(Cl)cc2)C1 + NC1CCC(NC2CC2c2ccccc2)CC1 show?
91.3

If you can, please state the reported viability, T/C value of CC1COCCN1c1cc(-c2ccnn2C)c2ccnc(-c3ccn[nH]3)c2n1 (stereo not drawn) + NC1CC1c1ccc(-c2cccc(O)c2)cc1 .
18.1

For the compound COc1ccc([C@@H](O)c2cc(-c3ncnc4cc(N5CCOCC5)ccc34)c(F)cc2Cl)nn1 + NC1CCC(NC2CC2c2ccccc2)CC1 , what viability, T/C is on record?
35.6

Recorded viability, T/C for Nc1ncn(C2CC(O)C(CO)O2)c(=O)n1 (stereo not drawn) + NC1CCC(NC2CC2c2ccccc2)CC1 , please?
47.3

Fill in: viability, T/C of CC1COCCN1c1cc(C2(S(C)(=N)=O)CC2)nc(-c2ccnc3[nH]ccc23)n1 (stereo not drawn) + NC1CC1c1ccc(-c2cccc(O)c2)cc1 is ___
68.4
